Source listed as patent US20210070748A1.

- study-system: BTK-WT (Homo sapiens, UniProt Q06187)
- Construct: purified from insect cells as a full-length construct containing an N-terminal 6X-His tag; His6 (N); made in house; host or cells: insect cells (baculovirus Sf21 in Method B)
- Sequence (Q06187 whole entry): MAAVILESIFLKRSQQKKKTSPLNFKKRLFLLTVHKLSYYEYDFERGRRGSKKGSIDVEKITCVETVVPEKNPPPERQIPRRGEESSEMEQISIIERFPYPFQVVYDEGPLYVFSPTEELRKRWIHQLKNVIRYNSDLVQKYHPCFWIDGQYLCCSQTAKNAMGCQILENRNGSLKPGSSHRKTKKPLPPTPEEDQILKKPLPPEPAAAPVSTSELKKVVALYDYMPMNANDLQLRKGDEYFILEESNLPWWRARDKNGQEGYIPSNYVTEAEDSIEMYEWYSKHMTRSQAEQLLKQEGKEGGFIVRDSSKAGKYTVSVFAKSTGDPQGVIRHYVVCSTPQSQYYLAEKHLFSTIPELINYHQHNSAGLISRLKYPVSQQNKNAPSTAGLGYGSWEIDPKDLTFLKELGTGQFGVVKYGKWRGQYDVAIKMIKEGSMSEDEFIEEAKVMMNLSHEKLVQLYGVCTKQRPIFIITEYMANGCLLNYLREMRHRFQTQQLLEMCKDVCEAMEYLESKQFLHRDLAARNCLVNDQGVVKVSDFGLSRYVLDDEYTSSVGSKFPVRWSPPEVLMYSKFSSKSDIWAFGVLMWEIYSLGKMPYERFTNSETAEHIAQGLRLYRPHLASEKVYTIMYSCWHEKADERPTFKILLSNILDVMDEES
- assay-overview: Btk in vitro inhibitory activity (one of Method A TR-FRET, Method B electrophoretic mobility shift, Method C radiometric filter binding)
- Type: biochemical
- protocol-conditions: E compounds, Table 17; read-out: IC50 BTK-WT
assay-readout: IC50

Use the examples below as a reference point.
1. C=CC(=O)N1CCC[C@@H](Nc2nnc(C(N)=O)c(Nc3cncc(F)c3)n2)C1 = ≤ 10 nM
2. C=CC(=O)N[C@H]1CCCC[C@@H]1Nc1nnc(C(N)=O)c(Nc2ccc(C(C)C)cc2)n1 = ≤ 10 nM
3. C=CC(=O)NC[C@H]1CCCN1c1nnc(C(N)=O)c(Nc2ccc(C(C)C)cc2)n1 = ≤ 10 nM
4. C=CC(=O)N1CCC[C@@H](Nc2nnc(C(N)=O)c(Nc3cccc(Cl)c3)n2)C1 = ≤ 10 nM
5. C[C@@H]1[C@H](NC(=O)c2noc(C(C)(C)C)n2)CCCN1c1cnc(C(N)=O)c(Nc2cnn(C)c2)n1 = 100 to 1000 nM
6. C=CC(=O)N1CCC[C@@H](Nc2nnc(C(N)=O)c(Nc3ccc(C4CCN(C5CCCC5)CC4)cc3)n2)C1 = ≤ 10 nM
7. C=CC(=O)N1CCC[C@@H](Nc2cnc(C(N)=O)c(Nc3ccc(C4CCN(C5CCCC5)CC4)cc3)n2)[C@H]1C = ≤ 10 nM
8. C=CC(=O)N[C@@H]1CCCN(c2nnc(C(N)=O)c(Nc3ccc(C(C)C)cc3)n2)C1 = 10 to 100 nM

Query CN(c1cnc(C(N)=O)c(Nc2ccc(C3(C)CCN(C4CC4)CC3)cc2)n1)[C@@H]1CCN(C(=O)C(F)(F)F)C1 yields IC50 of ≤ 10 nM

Query C=CC(=O)N1CCC[C@@H](Nc2nnc(C(N)=O)c(Nc3ccc(-n4nccn4)cc3)n2)C1 yields IC50 of ≤ 10 nM

Query C=CC(=O)N1CCC[C@@H](N(C)c2cnc(C(N)=O)c(Nc3ccc(C4CCN(C5CCCC5)CC4)cc3)n2)C1 yields IC50 of ≤ 10 nM

Query CC(C)c1ccc(Nc2nc(N3CCC[C@@H](N4CCC[C@@H](Nc5cc(Cl)cc(C(F)(F)F)c5)C4=O)C3)nnc2C(N)=O)cc1 yields IC50 of 100 to 1000 nM

Query Cc1cc(Nc2nc(N3CC[C@H](O)[C@@H](N4CCC[C@@H](Nc5cc(Cl)cc(C(F)(F)F)c5)C4=O)C3)nnc2C(N)=O)sn1 yields IC50 of ≤ 10 nM

Query C=CC(=O)N1CCCC[C@H](Nc2nnc(C(N)=O)c(Nc3ccc(C(C)C)cc3)n2)C1 yields IC50 of ≤ 10 nM

Query C=CC(=O)N1CCC[C@@H](N(C(=O)C=C)c2nnc(C(N)=O)c(Nc3ccc(C4CC4)cc3)n2)C1 yields IC50 of ≤ 10 nM

Query C=CC(=O)N1CCC[C@@H](Nc2nnc(C(N)=O)c(Nc3ccc(S(C)(=O)=O)cc3)n2)C1 yields IC50 of ≤ 10 nM

Query C=CC(=O)N1CC[C@@H](N(C)c2cnc(C(N)=O)c(Nc3cc(C)ns3)n2)C1 yields IC50 of ≤ 10 nM

Query C=CC(=O)N1CCC[C@@H](Nc2nnc(C(N)=O)c(Nc3cccc(C(=O)NC4CC4)c3)n2)C1 yields IC50 of ≤ 10 nM

Query C=CC(=O)N1CCC[C@@H](Nc2nnc(C(N)=O)c(Nc3cccc(C(=O)NCc4ccccc4)c3)n2)C1 yields IC50 of ≤ 10 nM

Query C[C@@H]1[C@H](NC(=O)c2ccc3c(c2)C(C)(C)OC3)CCCN1c1cnc(C(N)=O)c(Nc2cnn(C)c2)n1 yields IC50 of ≤ 10 nM

Query C=CC(=O)N1CC[C@@H](N(C)c2nnc(C(N)=O)c(Nc3ccc(C(C)C)cc3)n2)C1 yields IC50 of ≤ 10 nM
